The values you see were collected from patent US20120252796A1.

- measured on: PCSK9 (Homo sapiens, UniProt Q8NBP7)
- Sequence (Q8NBP7 153-692): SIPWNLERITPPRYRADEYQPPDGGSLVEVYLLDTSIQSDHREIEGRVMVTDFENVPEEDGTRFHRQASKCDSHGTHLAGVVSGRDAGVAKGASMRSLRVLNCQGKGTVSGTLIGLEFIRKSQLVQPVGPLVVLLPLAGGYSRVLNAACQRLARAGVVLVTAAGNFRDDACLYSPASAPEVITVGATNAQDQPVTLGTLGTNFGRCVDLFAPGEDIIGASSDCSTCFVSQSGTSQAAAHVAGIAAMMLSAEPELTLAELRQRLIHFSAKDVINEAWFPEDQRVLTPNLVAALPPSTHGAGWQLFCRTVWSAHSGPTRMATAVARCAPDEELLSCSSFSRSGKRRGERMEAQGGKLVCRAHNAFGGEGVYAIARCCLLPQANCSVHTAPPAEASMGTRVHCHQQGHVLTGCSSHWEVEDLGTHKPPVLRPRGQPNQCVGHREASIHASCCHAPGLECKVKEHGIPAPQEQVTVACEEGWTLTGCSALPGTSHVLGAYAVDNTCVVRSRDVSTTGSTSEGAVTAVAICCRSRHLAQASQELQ
- Sequence (Q8NBP7 31-152 partner limits assumed): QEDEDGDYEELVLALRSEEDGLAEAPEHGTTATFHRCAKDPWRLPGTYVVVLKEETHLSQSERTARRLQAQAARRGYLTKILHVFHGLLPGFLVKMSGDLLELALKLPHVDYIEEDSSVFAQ
- procedure details: PCSK9-LDLR in vitro Binding Assay (ELISA)
- experimental context: Concentration 100 μM
Record yes (1) whenever % Inhibition PCSK9 is at 20% or higher; record no (0) when lower.

Reference set (4 entries):
Cc1oc(-c2ccncc2)nc1CC1COC(C)(C(=O)N2CCOCC2)OC1 (stereo not drawn) [Example 82] : yes (1)
Cc1oc(-c2ccccc2)nc1CC1COC(C)(C(=O)N2CCOCC2)OC1 (stereo not drawn) [Example 12] : no (0)
Cc1oc(-c2ccccc2)nc1CCC1COC(C)(C(=O)N2CCSCC2)OC1 (stereo not drawn) [Example 45] : no (0)
Cc1oc(-c2ccccc2)nc1CC1COC(C)(C(=O)N2CCS(=O)(=O)CC2)OC1 (stereo not drawn) [Example 17] : no (0)

--- query ---
Ask | Could you please find out whether Cc1oc(-c2ccccc2)nc1CCC1COC(C)(C(=O)NCC(=O)N2CCSCC2)OC1 (stereo not drawn) [Example 52] has % Inhibition PCSK9 that meets 20% or exceeds it?
Reply | yes (1)
